src = the supplement of paper PMC11208160

Entries and their recombinant UMI read abundance (log10) values follow.
- assay.details: recombinant UMI read abundance after kanamycin selection (control-corrected) (log10(CPM+1)); higher = more efficient recombination; extreme values may be limits of the assay; sequences stand for … in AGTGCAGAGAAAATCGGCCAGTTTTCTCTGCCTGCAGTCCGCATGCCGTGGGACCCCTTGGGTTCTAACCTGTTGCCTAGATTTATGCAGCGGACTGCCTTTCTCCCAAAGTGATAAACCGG…AGGTTGGTTTCACT; site = the 11-nt donor
Simply state the number, no unit and no words.

Req: Need recombinant UMI read abundance (log10) of CCTTGTGCATGGACCGGTTTTCCCGGTAATCCGTATTTGGA (site CCTTGTGCTTC) , thanks.
Resp: 0.0149

Req: // returns reported recombinant UMI read abundance (log10) for input GTACGAGCATGGACCGGTTTTCCCGGTAATCCGTATTTGCA (site GTCCGAGCTTG)
Resp: 0.87

Req: Please report the recorded recombinant UMI read abundance (log10) for AGGAGGACATGGACCGGTTTTCCCGGTAATCCGTATTTGCA (site AGGATGACTTG) .
Resp: 0

Req: // query recombinant UMI read abundance (log10) value for entry GGAGTAGCATGGACCGGTTTTCCCGGTAATCCGTATTTGGT (site GGAGTTGCTAC)
Resp: 0

Req: Item under review: ACAAGTCCATGGACCGGTTTTCCCGGTAATCCGTATTTGTC (site ACAAGTCCTGA) . Reported recombinant UMI read abundance (log10)?
Resp: 0

Req: Can you look up the measured recombinant UMI read abundance (log10) of TAAAGTCCATGGACCGGTTTTCCCGGTAATCCGTATTTGGA (site TAAAGTCCTTT) for me?
Resp: 0.978

Req: So what's the measured recombinant UMI read abundance (log10) for this one? AAAGATTCATGGACCGGTTTTCCCGGTAATCCGTATTTGTT (site AAAGATTCTAA)
Resp: 2.82

Req: What does the data say about its recombinant UMI read abundance (log10)? Entry: TACAGCCCATGGACCGGTTTTCCCGGTAATCCGTATTTGGA (site TACAGCCCTTC)
Resp: 0.0282

Req: Which recombinant UMI read abundance (log10) is listed for TAAAGAGCATGGACCGGTTTTCCCGGTAATCCGTATTTGGG (site TAACGAGCTCC) ?
Resp: 0.0368

* * *

- assay.details: recombinant UMI read abundance after kanamycin selection (control-corrected) (log10(CPM+1)); higher = more efficient recombination; extreme values may be limits of the assay; sequences stand for … in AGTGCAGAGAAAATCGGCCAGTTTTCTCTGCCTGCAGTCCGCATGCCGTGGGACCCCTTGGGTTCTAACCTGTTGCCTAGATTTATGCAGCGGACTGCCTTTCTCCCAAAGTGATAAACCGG…AGGTTGGTTTCACT; site = the 11-nt donor
Label scheme for recombinant UMI read abundance (log10): lower than 0.01 is class 0, 0.01 and above is class 1.

These recorded examples may help you get a feel for the data.
• CGTATTCCATGGACCGGTTTTCCCGGTAATCCGTATTTGTG (site CGTATTCCTCA) = class 1
• TAATGCGCATGGACCGGTTTTCCCGGTAATCCGTATTTGGG (site TAATGAGCTCC) = class 1
• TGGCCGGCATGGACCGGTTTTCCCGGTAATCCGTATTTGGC (site TGGCCGACTGC) = class 0
• CGGACTACATGGACCGGTTTTCCCGGTAATCCGTATTTGAC (site AGGACTACTGT) = class 0

Req: hey, is recombinant UMI read abundance (log10) for this one >= 0.01? TGTATGGCATGGACCGGTTTTCCCGGTAATCCGTATTTGAC (site TGTATGGCTGT)
Resp: class 1

Req: // inclusive: recombinant UMI read abundance (log10) at least 0.01? input: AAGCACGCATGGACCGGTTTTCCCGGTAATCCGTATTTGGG (site AAGCACACTCC)
Resp: class 1

Req: Does recombinant UMI read abundance (log10) meet or surpass 0.01 for TTAGATGCATGGACCGGTTTTCCCGGTAATCCGTATTTGTG (site TTAGATGCTCA) ?
Resp: class 1

* * *

- assay.details: recombinant barcode read abundance after kanamycin selection (control-corrected) (log10(CPM+1)); higher = more efficient recombination; sequences stand for … in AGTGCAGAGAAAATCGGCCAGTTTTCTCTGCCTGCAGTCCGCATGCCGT…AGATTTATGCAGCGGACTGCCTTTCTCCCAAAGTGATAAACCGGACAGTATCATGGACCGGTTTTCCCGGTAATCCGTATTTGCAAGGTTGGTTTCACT; site = the 11-nt target
Items are presented alongside their recorded recombinant barcode read abundance (log10).

Some solved cases for reference:
- TAGGTTCCTTGGGTTCTAACCTGTTGCCT (site TAGGTTCCTAG): 0.348
- CCGGGATCTTGGGTTCTAACCTGTTGCCT (site TCGGGATCTAG): 0.231
- ATCGGTCCTTGGGTTCTAACCTGTTGCCT (site ATGGGTCCTAG): 0.0682
- CGGTACACTTGGGTTCTAACCTGTTGCGG (site CGGTACACTCC): 3.14
- CTATTATCTTGGGTTCTAACCTGTTGCCT (site CTGTTATCTAG): 0.0433
- TGCTGTGCTTGGGTTCTAACCTGTTGCCT (site TGCTGTACTAG): 0.0329
- TAGTCCTCTTGGGTTCTAACCTGTTGCTT (site TAGTCCTCTTA): 0.0542
- GGCAGTCCTTGGGTTCTAACCTGTTGCCG (site GGCAGACCTAG): 0.169

Req: I am curious: what recombinant barcode read abundance (log10) value has been reported for GGATGCACTTGGGTTCTAACCTGTTGCCA (site GGATCCACTTG) ?
Resp: 0.00874

Req: Need recombinant barcode read abundance (log10) of CAACACTCTTGGGTTCTAACCTGTTGCCT (site CTACACTCTAG) , thanks.
Resp: 0.446

Req: Param item = CCGACTTCTTGGGTTCTAACCTGTTGCCT (site CTGACTTCTAG) ; retrieve measured recombinant barcode read abundance (log10).
Resp: 0.129

* * *

Reported values of recombinant UMI read abundance (log10) for individual entries
- assay.details: recombinant UMI read abundance after kanamycin selection (control-corrected) (log10(CPM+1)); higher = more efficient recombination; extreme values may be limits of the assay; sequences stand for … in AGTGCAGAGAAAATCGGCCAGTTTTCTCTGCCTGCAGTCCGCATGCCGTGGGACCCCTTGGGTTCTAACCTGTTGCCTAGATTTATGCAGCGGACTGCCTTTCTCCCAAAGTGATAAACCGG…AGGTTGGTTTCACT; site = the 11-nt donor
The answer should be a number; do not append a unit.

• ATCCAACCATGGACCGGTTTTCCCGGTAATCCGTATTTGAG (site ATCCAATCTCT) = 0.257
• CGCACATCATGGACCGGTTTTCCCGGTAATCCGTATTTGCT (site CGGACATCTAG) = 0
• CGGACTCCATGGACCGGTTTTCCCGGTAATCCGTATTTGGT (site CGGAATCCTAA) = 0.00968

Req: If you can, please state the reported recombinant UMI read abundance (log10) value of GCTTCCCCATGGACCGGTTTTCCCGGTAATCCGTATTTGCA (site GCTTCCCCTTG) .
Resp: 1.15

Req: Quick check: recombinant UMI read abundance (log10) of TGTCCGGCATGGACCGGTTTTCCCGGTAATCCGTATTTGGC (site TGGCCGGCTGC) ?
Resp: 0

Req: Need recombinant UMI read abundance (log10), item GTATGTACATGGACCGGTTTTCCCGGTAATCCGTATTTGTA (site GTATGTACTTA)
Resp: 2.09

* * *

- assay.details: recombinant barcode read abundance after kanamycin selection (control-corrected) (log10(CPM+1)); higher = more efficient recombination; sequences stand for … in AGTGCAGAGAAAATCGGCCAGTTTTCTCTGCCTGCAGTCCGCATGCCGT…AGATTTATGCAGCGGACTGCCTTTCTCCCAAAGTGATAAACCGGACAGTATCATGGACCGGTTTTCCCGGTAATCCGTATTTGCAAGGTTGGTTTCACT; site = the 11-nt target
measured.endpoint: recombinant barcode read abundance (log10)
No unit in the answer, only the number.

* ACTCCGTCTTGGGTTCTAACCTGTTGCTA (site GCTCCGTCTAA) | 0.0432
* GTCGCGACTTGGGTTCTAACCTGTTGCCT (site GTCGCGTCTAG) | 0.215

Pending sequence:
Req: Item under review: GTTTATACTTGGGTTCTAACCTGTTGCCT (site GTATATACTAG) . Reported recombinant barcode read abundance (log10)?
Resp: 0.0265

* * *

Reported recombinant UMI read abundance (log10) values for a set of sequences
- assay.details: recombinant UMI read abundance after kanamycin selection (control-corrected) (log10(CPM+1)); higher = more efficient recombination; extreme values may be limits of the assay; sequences stand for … in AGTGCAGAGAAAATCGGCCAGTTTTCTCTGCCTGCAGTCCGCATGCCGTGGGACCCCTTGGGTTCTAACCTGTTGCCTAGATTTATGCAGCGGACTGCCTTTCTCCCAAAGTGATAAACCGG…AGGTTGGTTTCACT; site = the 11-nt donor
// response body must contain only the number

Solved entries:
• CATGGCTCATGGACCGGTTTTCCCGGTAATCCGTATTTGCG (site CATGGCTCTCG) = 2.15
• TCAACCGCATGGACCGGTTTTCCCGGTAATCCGTATTTGCG (site TCTACCGCTCG) = 0
• AGAGTATCATGGACCGGTTTTCCCGGTAATCCGTATTTGAA (site ACAGTATCTTG) = 2.21

Req: // lookup recombinant UMI read abundance (log10) for TAATGAGCATGGACCGGTTTTCCCGGTAATCCGTATTTGGA (site TAATGAGCTAC)
Resp: 0.0122

Req: recombinant UMI read abundance (log10) lookup needed for CGACGACCATGGACCGGTTTTCCCGGTAATCCGTATTTGAA (site CGACGACCTTT) , thanks.
Resp: 0.00772

Req: Form field: reported recombinant UMI read abundance (log10) of AACCATCCATGGACCGGTTTTCCCGGTAATCCGTATTTGAT (site AACCCTCCTAT)
Resp: 0.0146

Req: recombinant UMI read abundance (log10) lookup needed for GGGACGTCATGGACCGGTTTTCCCGGTAATCCGTATTTGAC (site GGGACGTCTGT) , thanks.
Resp: 3.2

Req: If you can, please state the reported recombinant UMI read abundance (log10) value of TAGACTCCATGGACCGGTTTTCCCGGTAATCCGTATTTGCA (site TAGACTCCTTG) .
Resp: 1.54

Req: Given the entry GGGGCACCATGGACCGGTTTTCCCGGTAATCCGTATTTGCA (site GGGGCAGCTTG) , report its measured recombinant UMI read abundance (log10).
Resp: 0

Req: Given the entry AGCCAAGCATGGACCGGTTTTCCCGGTAATCCGTATTTGTT (site AGCCGAGCTAA) , report its measured recombinant UMI read abundance (log10).
Resp: 0.00778

Req: Item AAACAGTCATGGACCGGTTTTCCCGGTAATCCGTATTTGCT (site AAACAGTCTAG) has what recorded recombinant UMI read abundance (log10)?
Resp: 2.98
